As shown below, each of these compounds has a reported IC50 value.
# TESTED ON: Beta-2 adrenergic receptor (Canis lupus familiaris)
OBSERVABLE: IC50

1. CS(=O)(=O)Nc1ccc(NCC2CN(c3ccccc3)CCN2)cc1 (configuration not stated): 1 µM
2. COc1ccccc1N1CCNCC1: 34 µM
3. CS(=O)(=O)Nc1ccc(CNCC2CN(c3ccccc3)CCN2)cc1 (configuration not stated): 4.6 µM
4. O=C(NCC1CN(c2ccccc2)CCN1)c1ccccc1 (configuration not stated): 6.2 µM
5. CC(=O)c1ccc(N2CCNCC2)cc1: > 100 µM
6. CS(=O)(=O)Nc1ccc(OCC2CN(c3ccccc3)CCN2)cc1 (configuration not stated): 4.5 µM
7. Cc1cccc(N2CCNCC2)c1: 40 µM

---

# TESTED ON: Beta-2 adrenergic receptor (Canis lupus familiaris, UniProt P54833)
# Sequence (P54833 whole entry): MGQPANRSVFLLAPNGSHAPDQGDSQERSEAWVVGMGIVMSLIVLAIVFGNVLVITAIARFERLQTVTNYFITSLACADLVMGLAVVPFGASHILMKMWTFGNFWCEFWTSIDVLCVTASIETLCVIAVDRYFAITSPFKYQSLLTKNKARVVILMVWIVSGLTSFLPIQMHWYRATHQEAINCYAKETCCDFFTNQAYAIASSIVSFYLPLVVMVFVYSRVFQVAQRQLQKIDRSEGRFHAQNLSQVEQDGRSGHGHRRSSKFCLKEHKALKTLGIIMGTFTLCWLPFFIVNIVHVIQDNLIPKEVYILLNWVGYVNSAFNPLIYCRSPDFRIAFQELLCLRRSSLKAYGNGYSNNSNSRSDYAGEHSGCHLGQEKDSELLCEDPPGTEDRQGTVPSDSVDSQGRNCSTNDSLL
Quick reference: IC50 of the listed items.
OBSERVABLE: IC50 (µM)

1. Clc1cccc(N2CCNCC2)c1: 18
2. COc1cccc(N2CCNCC2)c1: 29
3. CS(=O)(=O)Nc1ccc(NCC2CNCCN2c2ccccc2)cc1 (stereo not given): 42

---

# TESTED ON: Beta-2 adrenergic receptor (Canis lupus familiaris, UniProt P54833)
pIC50: −log10 of the molar value.
Lab note: anything with pIC50 at or over 5 counts as y; the rest go in n.

1. O=C(NCC1CN(c2ccccc2)CCN1)c1ccc(-n2ccnc2)cc1 (configuration not stated): y
2. CS(=O)(=O)Nc1ccc(C(=O)NCC2CN(c3ccccc3)CCN2)cc1 (configuration not stated): y
3. COc1cccc(N2CCNC(CNC(=O)c3ccc(NS(C)(=O)=O)cc3)C2)c1 (configuration not stated): y
4. Clc1ccc(N2CCNCC2)cc1: n
5. Clc1ccccc1N1CCNCC1: n
6. CS(=O)(=O)Nc1ccc(C(=O)NCC2CNCCN2c2ccccc2)cc1 (configuration not stated): n
7. CS(=O)(=O)Nc1ccc(NC(=O)C2CN(c3ccccc3)CCN2)cc1 (configuration not stated): n
8. CN(c1ccc(C(=O)NCC2CN(c3ccccc3)CCN2)cc1)S(C)(=O)=O (configuration not stated): y
9. COc1ccc(N2CCNCC2)cc1: n
10. COc1ccccc1N1CCNC(CNC(=O)c2ccc(NS(C)(=O)=O)cc2)C1 (configuration not stated): y
11. Cc1ccccc1N1CCNCC1: n
12. CS(=O)(=O)Nc1ccc(C(=O)NCC2CN(c3cccc(Cl)c3)CCN2)cc1 (configuration not stated): y

Where these numbers come from: ChEMBL document CHEMBL1125380
